Each record here notes measured growth.
System: HT29 colon
Experiment: NCI-60 one-dose screen, 48 h (100 = growth as untreated, 0 = no growth, -100 = all killed)
Details: 10 µM unless noted
About 83,000 compounds went through this panel and 20% of them were active in at least one assay; those are over-represented in the sample as a whole. Calls of active or inactive are those of the source. The calls were made as follows: active = growth percent below 10; inactive = the rest.
attribute.measured: growth

[[record]]
molecule = "Nc1cc(Br)cc2c1[nH]c(=O)c1ccccc12"
attribute_measured = "growth"
recorded_value = "114% (inactive)"

[[record]]
molecule = "Cn1cc(-c2nonc2-c2c[nH]c3ccccc23)c2cc(Br)ccc21"
attribute_measured = "growth"
recorded_value = "8.18% (active)"

[[record]]
molecule = "Cc1c(O)cc(-c2cnc(N/N=C/c3ccccc3)s2)c(O)c1C"
attribute_measured = "growth"
recorded_value = "104% (inactive)"

[[record]]
molecule = "COc1ccc(C/C(C)=C(\\c2ccc(O)cc2)c2ccc(OCCN3CCCCC3)cc2)cc1"
attribute_measured = "growth"
recorded_value = "22.5% (inactive)"

[[record]]
molecule = "Cc1ccc(S(=O)(=O)c2nc(-c3ccccc3)oc2SCC(N)=O)cc1"
attribute_measured = "growth"
recorded_value = "85.7% (inactive)"

[[record]]
molecule = "c1ccc2cc(Cn3cc(CSc4nc5ccccc5s4)nn3)ccc2c1"
attribute_measured = "growth"
recorded_value = "95.7% (inactive)"

[[record]]
molecule = "C=C(C)[C@@H]1CC[C@]2(C(=O)Nc3ccccn3)CC[C@]3(C)[C@H](CC[C@@H]4[C@@]5(C)CCCNC(C)(C)[C@@H]5CC[C@]43C)[C@@H]12"
attribute_measured = "growth"
recorded_value = "4.13% (active)"

[[record]]
molecule = "CCOC(=O)NC(=S)n1oc(=O)c2ccccc21"
attribute_measured = "growth"
recorded_value = "105% (inactive)"

[[record]]
molecule = "Cc1c2cnccc2c(C)c2c1c1cc(CO)ccc1n2C"
attribute_measured = "growth"
recorded_value = "-16.3% (active)"

[[record]]
molecule = "O=c1oc2ccccc2cc1-c1nn(-c2ccccc2)cc1-c1nn[nH]n1"
attribute_measured = "growth"
recorded_value = "104% (inactive)"

[[record]]
molecule = "COc1ccc2cc(-c3nc4ccc(C)cn4c3NCc3ccco3)c(=O)[nH]c2c1"
attribute_measured = "growth"
recorded_value = "79.9% (inactive)"

[[record]]
molecule = "O=C(OCc1ccc2c(Cl)cc(Cl)c(O)c2n1)N1CCN(C(=O)c2cc3ccccc3[nH]2)CC1"
attribute_measured = "growth"
recorded_value = "59.3% (inactive)"

[[record]]
molecule = "CNCCCNc1nc2ccccc2c2c(=O)c3cc(Cl)ccc3sc12"
attribute_measured = "growth"
recorded_value = "-92.4% (active)"

[[record]]
molecule = "O=C(/C=C/C12c3ccccc3C(c3ccccc31)C1C(=O)NC(=O)C12)c1ccco1 (centres undefined)"
attribute_measured = "growth"
recorded_value = "13.1% (inactive)"

[[record]]
molecule = "COc1ccc2c(c1)CC[C@@H]1[C@@H]2CC[C@]2(C)C3C(=CC(COC(C)=O)C4C(=O)N(c5ccc(Cl)cc5)C(=O)C43)C[C@@H]12 (some centres undefined)"
attribute_measured = "growth"
recorded_value = "90% (inactive)"

[[record]]
molecule = "CC(C)CCC[C@@H](C)[C@H]1CC[C@H]2[C@@H]3CC=C4c5sc(Nc6cc(C(F)(F)F)cc(C(F)(F)F)c6)nc5CC[C@]4(C)[C@H]3CC[C@]12C"
attribute_measured = "growth"
recorded_value = "110% (inactive)"

[[record]]
molecule = "COC12C=C/C(=C(/C(=O)OCc3cncnc3)C(=O)CCCCCCCCC3(OC)C=C/C(=C(/C(=O)OCc4cncnc4)C(=O)CCCCCCCC1)O3)O2"
attribute_measured = "growth"
recorded_value = "1.94% (active)"

[[record]]
molecule = "O=c1oc2c(cnc3ccccc32)cc1-c1cccc(Cl)c1"
attribute_measured = "growth"
recorded_value = "108% (inactive)"

[[record]]
molecule = "c1cc(OCCN2CCCCCC2)ccc1CNc1ccc2nc(CCC3CCCCC3)[nH]c2c1"
attribute_measured = "growth"
recorded_value = "8.15% (active)"

